Data provenance is a collection of fitness landscapes (doi:10.1016/j.celrep.2020.107928).

Reported one-hybrid fitness for binding NBS DNA values are given for each entry in this list.
B1: Caulobacter ParB omega fusion; a variant is named by its letters at X, in order, B8GW30 (parent)
chain: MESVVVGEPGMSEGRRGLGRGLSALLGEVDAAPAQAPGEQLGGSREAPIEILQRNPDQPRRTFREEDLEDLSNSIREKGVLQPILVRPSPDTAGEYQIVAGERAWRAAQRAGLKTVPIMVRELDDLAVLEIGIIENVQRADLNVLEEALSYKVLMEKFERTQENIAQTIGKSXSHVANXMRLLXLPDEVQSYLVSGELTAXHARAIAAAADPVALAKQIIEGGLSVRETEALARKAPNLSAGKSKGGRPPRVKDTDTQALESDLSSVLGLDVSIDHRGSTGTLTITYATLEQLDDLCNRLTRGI

- Variants of: B1
- assay_details: one-hybrid fitness for binding NBS DNA (the Noc-binding site; scaled: cognate 1, non-cognate 0); higher = stronger binding
- condition_info: with NBS DNA site
In all, about 81,000 sequences were measured (“one-hybrid fitness for binding NBS DNA”: median about -0.1, highest 2% from about 0.36 on). The full list was thinned out, with the highest values kept by preference.

Recorded results for 5 variants are shown here.
Would you mind telling me what one-hybrid fitness for binding NBS DNA value was observed for `QPAR` ? ≤ 0.2

Same read-out for `QRRH` ? 0.779

Same read-out for `QPRN` ? ≤ 0.2

Same read-out for `QSYN` ? ≤ 0.2

Same read-out for `NDTY` ? ≤ 0.2

More entries:
Would you mind telling me what one-hybrid fitness for binding NBS DNA value was observed for `LQET` ? ≤ 0.2

Same read-out for `QIAH` ? ≤ 0.2

Same read-out for `KRQR` ? 0.552

Same read-out for `ESMD` ? ≤ 0.2

Same read-out for `ERAT` ? ≤ 0.2

Same read-out for `FLQL` ? ≤ 0.2

Same read-out for `RPCS` ? ≤ 0.2

Same read-out for `QSAD` ? ≤ 0.2

Same read-out for `CAHR` ? ≤ 0.2
